Reported cAMP EC50 (1.0% HSA) values for the following binders.
Biological target: T1, human GIP receptor (human, UniProt P48546 22-466)
T1 sequence (looked up): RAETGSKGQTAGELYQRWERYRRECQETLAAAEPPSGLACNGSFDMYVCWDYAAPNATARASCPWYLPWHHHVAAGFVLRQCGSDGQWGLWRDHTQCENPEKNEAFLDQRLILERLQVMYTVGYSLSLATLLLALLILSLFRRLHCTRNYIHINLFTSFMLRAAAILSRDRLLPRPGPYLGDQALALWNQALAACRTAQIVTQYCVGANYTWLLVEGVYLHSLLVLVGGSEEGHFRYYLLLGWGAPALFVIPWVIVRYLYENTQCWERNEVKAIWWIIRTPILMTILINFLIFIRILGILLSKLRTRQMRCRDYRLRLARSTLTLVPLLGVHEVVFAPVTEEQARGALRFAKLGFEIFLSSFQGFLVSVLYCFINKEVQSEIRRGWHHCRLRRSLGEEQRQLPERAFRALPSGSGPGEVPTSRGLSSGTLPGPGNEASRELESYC
Assay: cell-based or functional assay
Just the number please, in nM, no unit attached.

BINDER	ENDPOINT UNIT	VALUE
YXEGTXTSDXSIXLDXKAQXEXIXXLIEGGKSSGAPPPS (Aib2, αMeF(2F)6, 4Pal10, αMeL13, Orn16, Aib20, 2FPhe22, D-Glu24, αMeY25; acylated K17, K31 (groups as in name); C-terminal amide)	nM	0.771
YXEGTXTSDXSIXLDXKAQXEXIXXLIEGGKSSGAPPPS (Aib2, αMeF(2F)6, 4Pal10, αMeL13, Orn16, Aib20, 1Nal22, D-Glu24, αMeY25; acylated K17, K31 (groups as in name); C-terminal amide)	nM	0.787
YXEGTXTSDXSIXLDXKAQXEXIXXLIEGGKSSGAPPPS (Aib2, αMeF(2F)6, 4Pal10, αMeL13, Orn16, Aib20, 3FPhe22, D-Glu24, αMeY25; acylated K17, K31 (groups as in name); C-terminal amide)	nM	0.986
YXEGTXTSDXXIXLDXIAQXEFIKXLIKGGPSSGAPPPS (Aib2, αMeF(2F)6, 4Pal10, αMeS11, αMeL13, Orn16, Aib20, αMeY25; acylated K24, K28 (groups as in name); C-terminal amide)	nM	5.31
YXEGTXTSDVXIXLDXKAQXEFIXXLIEGGKSSGAPPPS (Aib2, αMeF(2F)6, αMeS11, αMeL13, Orn16, Aib20, D-Glu24, αMeY25; acylated K17, K31 (groups as in name); C-terminal amide)	nM	16.6

cAMP EC50 (1.0% HSA) lookup needed for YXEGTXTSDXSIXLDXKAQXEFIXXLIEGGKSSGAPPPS (Aib2, αMeF(2F)6, 2Nal10, αMeL13, Orn16, Aib20, D-Glu24, αMeY25; acylated K17, K31 (groups as in name); C-terminal amide) , thanks.
4.55

Continue with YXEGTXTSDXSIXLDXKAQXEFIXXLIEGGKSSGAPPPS (Aib2, αMeF(2F)6, αMeL10, αMeL13, Orn16, Aib20, D-Glu24, αMeY25; acylated K17, K31 (groups as in name); C-terminal amide)
15.8

// repeat for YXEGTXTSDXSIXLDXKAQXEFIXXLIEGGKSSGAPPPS (Aib2, αMeF(2F)6, Bip10, αMeL13, Orn16, Aib20, D-Glu24, αMeY25; acylated K17, K31 (groups as in name); C-terminal amide) and report
6.62

YXEGTXTSDXSIXLDXIAQXKFIXXLIEGGKSSGAPPPS (Aib2, αMeF(2F)6, 4Pal10, αMeL13, Orn16, Aib20, D-Glu24, αMeY25; acylated K21, K31 (groups as in name); C-terminal amide) ?
0.771

Continue with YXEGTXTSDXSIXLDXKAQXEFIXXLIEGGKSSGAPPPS (Aib2, αMeF(2F)6, hTyr10, αMeL13, Orn16, Aib20, D-Glu24, αMeY25; acylated K17, K31 (groups as in name); C-terminal amide)
1.52

Can you handle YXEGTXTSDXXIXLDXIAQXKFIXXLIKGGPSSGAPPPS (Aib2, αMeF(2F)6, 4Pal10, αMeS11, αMeL13, Orn16, Aib20, D-Glu24, αMeY25; acylated K21, K28 (groups as in name); C-terminal amide) next?
7.84
